Protocol details: CEETOX_H295R_PROG: CeeTox H295R High-throughput Steroidogenesis Assay for Progesterone (PROG) (AID 2283442)
Condition info: actives raise or lower the signal
Calls of active or inactive are those of the source. How the source made its calls: active means hit-call score of the fitted dose curve at least 0.9, where 1 is the maximum; inactive means score below 0.9.
Outcome codes: active, inactive

Compound	Answer label
CC(C)(C)c1ccc(O)cc1	inactive
CC(C)Nc1ccc(Nc2ccccc2)cc1	inactive
CCNc1nc(Cl)nc(NC(C)(C)C)n1	inactive
O=P(Oc1ccccc1)(Oc1ccccc1)Oc1ccccc1	active
COP(N)(=S)OC	inactive
c1ccc(OP(Oc2ccccc2)Oc2ccccc2)cc1	inactive
Cc1ccc(O)cc1C	inactive
ClC(Cl)=C(c1ccc(Cl)cc1)c1ccccc1Cl	inactive
Nc1ccc(Cl)cc1	active
CCOP(=S)(NC(C)C)Oc1ccccc1C(=O)OC(C)C (configuration not stated)	active
CC(=O)c1ccc(-c2ccccc2)cc1	inactive
Nc1cc2c3c(c1)C(c1ccccc1)=N[C@@H](NC(=O)c1cccnc1)C(=O)N3CC2	active
Cc1cccc(N)c1	inactive
CCOP(=S)(OCC)SCn1nnc2ccccc2c1=O	active
O=S(=O)(c1ccc(O)cc1)c1ccc(O)cc1	active
Nc1ccc2ccccc2c1	active
CO/N=C(/C(=O)OC)c1ccccc1COc1ccccc1C	active

----------
Read-out: Monokine induced gamma interferon (MIG), CXCL9 (gene 4283)
Protocol details: BSK_CASM3C_MIG: BioMAP Diversity Plus: CASM3C Assay for Monokine induced gamma interferon (MIG) Biomarker Activity (AID 2283048);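 further: MIG protein level measured by ELISA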
Condition info: primary human coronary artery smooth muscle cells; actives raise or lower the signal
The source made the active and inactive calls. Rule for the calls: active = hit-call score of the fitted dose curve at least 0.9, where 1 is the maximum; inactive = score below 0.9.
Outcome codes: 1.0 (active), 0.0 (inactive)

Compound	Answer label
CC(Cc1ccc(OCC(=O)O)cc1)NCC(O)c1csc(C(F)(F)F)n1 (centres undefined)	0.0
Nc1ccc([N+](=O)[O-])cc1Cl	0.0
Cc1ccc([N+](=O)[O-])cc1C	0.0
CCOC(=O)c1ccccc1C(=O)OCC	0.0
Cc1ccc(N)cc1N	0.0
CC(Cl)CN(C)C (centres undefined)	0.0
Nc1ccc2ccccc2c1	0.0
CC(C)(C)c1ccccc1OP(=O)(Oc1ccccc1)Oc1ccccc1	0.0
Nc1ccc(Cl)cc1	0.0
OCC(F)(F)OC(F)(F)C(F)(F)OC(F)(F)C(F)(F)OC(F)(F)CO	0.0
O=C(O)C(F)(F)OC(F)(F)C(F)(F)OC(F)(F)C(=O)O	0.0
CCOP(=S)(OCC)SCSCC	0.0
CCOP(=S)(OCC)SCn1nnc2ccccc2c1=O	0.0
CC(C)(C)OOC(C)(C)C	0.0
O=[N+]([O-])c1ccccc1	0.0
ClC(Cl)(Cl)c1ccccc1	0.0
O=S(=O)(F)C(F)(F)C(F)(F)C(F)(F)C(F)(F)C(F)(F)C(F)(F)C(F)(F)C(F)(F)F	0.0
COP(=O)(O)OC	0.0
O=C(O)C=CC(F)(C(F)(F)F)C(F)(F)F	0.0
CC(C)(C)c1ccc(O)cc1	0.0
O=P(OCC(Br)CBr)(OCC(Br)CBr)OCC(Br)CBr (centres undefined)	0.0
ClC(Cl)=C(c1ccc(Cl)cc1)c1ccccc1Cl	0.0
N#Cc1cc([N+](=O)[O-])ccc1N	0.0
c1nc[nH]n1	0.0
CCOS(=O)(=O)OCC	0.0
O=c1ssc(Cl)c1Cl	1.0
N#Cc1c(-c2ccc(Cl)cc2)[nH]c(C(F)(F)F)c1Br	1.0
CCCCCCCc1ccc(O)cc1	1.0
O=C(O)C1C(C(=O)O)C2(Cl)C(Cl)=C(Cl)C1(Cl)C2(Cl)Cl (centres undefined)	0.0
